Overview of recorded combination Emax for various molecules
system: NCI-H1793 (Lung Adenocarcinoma); assay: combination Emax (second highest fraction inhibited in the dose matrix, 72 h); higher = more inhibition; extreme values may be limits of the assay
Number, no unit, nothing else.

Below are worked cases with known answers.
CC(=O)c1c(C)c2cnc(Nc3ccc(N4CCNCC4)cn3)nc2n(C2CCCC2)c1=O [Palbociclib] + CC1(C)CCC(CN2CCN(c3ccc(C(=O)NS(=O)(=O)c4ccc(NCC5CCOCC5)c([N+](=O)[O-])c4)c(Oc4cnc5[nH]ccc5c4)c3)CC2)=C(c2ccc(Cl)cc2)C1 [Venetoclax] (first compound max 10 µM, 7x7, partner max 1 µM) = 0.197
Cc1c2c(nn1C)CSCc1cc(n(C)n1)CSc1cc(c3ccccc3c1)OCCCc1c(C(=O)O)n(C)c3c-2c(Cl)ccc13 [AZD5991] + C1CN(CCC1(C(=O)N[C@@H](CCO)C2=CC=C(C=C2)Cl)N)C3=NC=NC4=C3C=CN4 [Capivasertib] (first compound max 1 µM, 7x7, partner max 3 µM) = 0.302
CN(CCO)CC[C@H](CSc1ccccc1)Nc1ccc(S(=O)(=O)NC(=O)c2ccc(N3CCC([C@@H](O)c4ccccc4-c4ccc(Cl)cc4)CC3)cc2)cc1S(=O)(=O)C(F)(F)F [AZD4320] + CCN(CCO)CCCOc1ccc2c(Nc3cc(CC(=O)Nc4cccc(F)c4)[nH]n3)ncnc2c1 [AZD2811] (first compound max 1 µM, 7x7, partner max 1 µM) = 0.283
C[C@@H](c1ccc2nccn2c1)n1nnc2ncc(-c3cnn(C)c3)nc21 [Savolitinib] + CC1(C)CCC(CN2CCN(c3ccc(C(=O)NS(=O)(=O)c4ccc(NCC5CCOCC5)c([N+](=O)[O-])c4)c(Oc4cnc5[nH]ccc5c4)c3)CC2)=C(c2ccc(Cl)cc2)C1 [Venetoclax] (first compound max 1 µM, 7x7, partner max 1 µM) = 0.193
Cn1cnc2c(F)c(Nc3ccc(Br)cc3Cl)c(C(=O)NOCCO)cc21 [Selumetinib] + C[C@@H]1COCCN1C2=NC(=NC(=C2)C3(CC3)[S@](=N)(=O)C)C4=C5C=CNC5=NC=C4 [AZD6738] (first compound max 10 µM, 7x7, partner max 10 µM) = 0.524

Lookup: Name the recorded combination Emax for Cc1c2c(nn1C)CSCc1cc(n(C)n1)CSc1cc(c3ccccc3c1)OCCCc1c(C(=O)O)n(C)c3c-2c(Cl)ccc13 [AZD5991] + CN(C)CCCOc1ccc(-c2ccc3ncc4c(c3c2)n(C2CCOCC2)c(=O)n4C)cn1 [AZD0156] (first compound max 1 µM, 7x7, partner max 1 µM) .
Found: 0.302

----------
system: COR-L95 (Small Cell Lung Carcinoma); experiment: Bliss excess, mean over the matrix (fraction); higher = more synergy
Assay metric: Bliss excess
Number, no unit, nothing else.

C[C@@H](Oc1cc(-c2cnn(C3CCNCC3)c2)cnc1N)c1c(Cl)ccc(F)c1Cl [Crizotinib] + Cn1cnc2c(F)c(Nc3ccc(Br)cc3Cl)c(C(=O)NOCCO)cc21 [Selumetinib] (first compound max 10 µM, 7x7, partner max 10 µM) = -0.0955

Here is another compound to look at.
Lookup: Name the recorded Bliss excess for CCN(CCO)CCCOc1ccc2c(Nc3cc(CC(=O)Nc4cccc(F)c4)[nH]n3)ncnc2c1 [AZD2811] + O=C(c1cc(Cc2n[nH]c(=O)c3ccccc23)ccc1F)N1CCN(C(=O)C2CC2)CC1 [Olaparib] (first compound max 1 µM, 7x7, partner max 10 µM) .
Found: -0.0526

----------
system: NCI-H2369 (Mesothelioma); assay: Bliss excess, mean over the matrix (fraction); higher = more synergy
Overview of recorded Bliss excess for various compounds
Number, no unit, nothing else.

Below are worked cases with known answers.
C[C@@H]1COCCN1c1cc(C2([S@](C)(=N)=O)CC2)nc(-c2ccnc3[nH]ccc23)n1 [AZD6738] + O=C(c1cc(Cc2n[nH]c(=O)c3ccccc23)ccc1F)N1CCN(C(=O)C2CC2)CC1 [Olaparib] (first compound max 10 µM, 7x7, partner max 10 µM) = -0.0344
COc1cccc(OCCCN)c1-c1cc(Nc2cnc(C#N)cn2)n[nH]1 [Prexasertib] + CCc1c2c(nc3ccc(O)cc13)-c1cc3c(c(=O)n1C2)COC(=O)[C@]3(O)CC [SN-38] (first compound max 1 µM, 7x7, partner max 0.3 µM) = 0.0148

Here is another compound to look at.
Lookup: Name the recorded Bliss excess for CN(CCO)CC[C@H](CSc1ccccc1)Nc1ccc(S(=O)(=O)NC(=O)c2ccc(N3CCC([C@@H](O)c4ccccc4-c4ccc(Cl)cc4)CC3)cc2)cc1S(=O)(=O)C(F)(F)F [AZD4320] + CCN(CCO)CCCOc1ccc2c(Nc3cc(CC(=O)Nc4cccc(F)c4)[nH]n3)ncnc2c1 [AZD2811] (first compound max 1 µM, 7x7, partner max 1 µM) .
Found: 0.0005

----------
tested on: HCC2157 (Breast Carcinoma); assay: combination Emax (second highest fraction inhibited in the dose matrix, 72 h); higher = more inhibition; extreme values may be limits of the assay
Overview of recorded combination Emax for various molecules

Below are worked cases with known answers.
COc1cccc(OCCCN)c1-c1cc(Nc2cnc(C#N)cn2)n[nH]1 [Prexasertib] + CN(C)CCCOc1ccc(-c2ccc3ncc4c(c3c2)n(C2CCOCC2)c(=O)n4C)cn1 [AZD0156] (first compound max 1 µM, 7x7, partner max 1 µM) = 0.976
Cc1c2c(nn1C)CSCc1cc(n(C)n1)CSc1cc(c3ccccc3c1)OCCCc1c(C(=O)O)n(C)c3c-2c(Cl)ccc13 [AZD5991] + CN(C)CCCOc1ccc(-c2ccc3ncc4c(c3c2)n(C2CCOCC2)c(=O)n4C)cn1 [AZD0156] (first compound max 1 µM, 7x7, partner max 1 µM) = 0.98
Cn1cnc2c(F)c(Nc3ccc(Br)cc3Cl)c(C(=O)NOCCO)cc21 [Selumetinib] + CC(C)n1c(=O)n(C)c2cnc3cc(F)c(-c4ccc(OCCCN5CCCCC5)nc4)cc3c21 [AZD1390] (first compound max 10 µM, 7x7, partner max 0.3 µM) = 0.238

Here is another molecule to look at.
Lookup: Name the recorded combination Emax for Cc1c2c(nn1C)CSCc1cc(n(C)n1)CSc1cc(c3ccccc3c1)OCCCc1c(C(=O)O)n(C)c3c-2c(Cl)ccc13 [AZD5991] + Cc1cc2ncnn2cc1Nc1ncc2c(n1)n(C1CCOCC1)c(=O)n2C [AZD7648] (first compound max 1 µM, 7x7, partner max 10 µM) .
Found: 0.984

----------
tested on: SW1088 (Low Grade Glioma); assay: Bliss excess, mean over the matrix (fraction); higher = more synergy
Overview of recorded Bliss excess for various molecules
Number, no unit, nothing else.

Below are worked cases with known answers.
Cc1c2c(nn1C)CSCc1cc(n(C)n1)CSc1cc(c3ccccc3c1)OCCCc1c(C(=O)O)n(C)c3c-2c(Cl)ccc13 [AZD5991] + CCN(CCO)CCCOc1ccc2c(Nc3cc(CC(=O)Nc4cccc(F)c4)[nH]n3)ncnc2c1 [AZD2811] (first compound max 1 µM, 7x7, partner max 1 µM) = -0.0485
O=C(c1cc(Cc2n[nH]c(=O)c3ccccc23)ccc1F)N1CCN(C(=O)C2CC2)CC1 [Olaparib] + COc1nnc2ccc(N3CCC(c4ccc(OCCN5CCN(C)C(=O)[C@H]5C)cc4)CC3)nn12 [AZD5153] (first compound max 10 µM, 7x7, partner max 1 µM) = -0.0563
O=C(c1cc(Cc2n[nH]c(=O)c3ccccc23)ccc1F)N1CCN(C(=O)C2CC2)CC1 [Olaparib] + Cc1c2c(nn1C)CSCc1cc(n(C)n1)CSc1cc(c3ccccc3c1)OCCCc1c(C(=O)O)n(C)c3c-2c(Cl)ccc13 [AZD5991] (first compound max 10 µM, 7x7, partner max 1 µM) = -0.0383

Here is another molecule to look at.
Lookup: Name the recorded Bliss excess for Cc1cc2ncnn2cc1Nc1ncc2c(n1)n(C1CCOCC1)c(=O)n2C [AZD7648] + COc1cc([C@@H]2c3cc4c(cc3[C@@H](O[C@@H]3O[C@@H]5CO[C@@H](C)O[C@H]5[C@H](O)[C@H]3O)[C@H]3COC(=O)[C@H]23)OCO4)cc(OC)c1O [Etoposide] (first compound max 10 µM, 7x7, partner max 10 µM) .
Found: 0.032

----------
tested on: NCI-H1694 (Small Cell Lung Carcinoma); assay: Bliss excess, mean over the matrix (fraction); higher = more synergy
Overview of recorded Bliss excess for various compounds
Number, no unit, nothing else.

Below are worked cases with known answers.
CN(CCO)CC[C@H](CSc1ccccc1)Nc1ccc(S(=O)(=O)NC(=O)c2ccc(N3CCC([C@@H](O)c4ccccc4-c4ccc(Cl)cc4)CC3)cc2)cc1S(=O)(=O)C(F)(F)F [AZD4320] + CN(C)CCCOc1ccc(-c2ccc3ncc4c(c3c2)n(C2CCOCC2)c(=O)n4C)cn1 [AZD0156] (first compound max 1 µM, 7x7, partner max 1 µM) = 0.0791
COc1cccc(OCCCN)c1-c1cc(Nc2cnc(C#N)cn2)n[nH]1 [Prexasertib] + CCc1c2c(nc3ccc(O)cc13)-c1cc3c(c(=O)n1C2)COC(=O)[C@]3(O)CC [SN-38] (first compound max 1 µM, 7x7, partner max 0.3 µM) = 0.0037
CN(CCO)CC[C@H](CSc1ccccc1)Nc1ccc(S(=O)(=O)NC(=O)c2ccc(N3CCC([C@@H](O)c4ccccc4-c4ccc(Cl)cc4)CC3)cc2)cc1S(=O)(=O)C(F)(F)F [AZD4320] + C[C@@H](Nc1cc(F)cc(F)c1)c1cc(C(=O)N(C)C)cc2c(=O)cc(N3CCOCC3)oc12 [AZD8186] (first compound max 1 µM, 7x7, partner max 3 µM) = 0.0454
CC1(C)CCC(CN2CCN(c3ccc(C(=O)NS(=O)(=O)c4ccc(NCC5CCOCC5)c([N+](=O)[O-])c4)c(Oc4cnc5[nH]ccc5c4)c3)CC2)=C(c2ccc(Cl)cc2)C1 [Venetoclax] + C[C@@H]1COCCN1C2=NC(=NC(=C2)C3(CC3)[S@](=N)(=O)C)C4=C5C=CNC5=NC=C4 [AZD6738] (first compound max 1 µM, 7x7, partner max 10 µM) = 0.0443
COc1cccc2c1C(=O)c1c(O)c3c(c(O)c1C2=O)C[C@@](O)(C(=O)CO)C[C@@H]3O[C@H]1C[C@H](N)[C@H](O)[C@H](C)O1 [Doxorubicin] + Cc1cc2ncnn2cc1Nc1ncc2c(n1)n(C1CCOCC1)c(=O)n2C [AZD7648] (first compound max 1 µM, 7x7, partner max 10 µM) = 0.12

Lookup: Name the recorded Bliss excess for C=CCn1c(=O)c2cnc(Nc3ccc(N4CCN(C)CC4)cc3)nc2n1-c1cccc(C(C)(C)O)n1 [AZD1775] + O=C(c1cc(Cc2n[nH]c(=O)c3ccccc23)ccc1F)N1CCN(C(=O)C2CC2)CC1 [Olaparib] (first compound max 1 µM, partner max 10 µM) .
Found: -0.036
